test: in vitro; details: human, hela cells, % viability
Result type: viability at 28.5 h, 10 µM (%)
Provide only the numeric value, understood in %.

[in] Look up and state reported viability at 28.5 h, 10 µM for OCc1nc2ccccc2n1CCCCOc1ccccc1Cl [CBK270117]
[out] 106

[in] Look up and state reported viability at 28.5 h, 10 µM for N#CCCCN1CCC(Oc2nccnc2OCCN2C(=O)CCC2=O)CC1 [CBK084349]
[out] 99.4

[in] Look up and state reported viability at 28.5 h, 10 µM for Nc1ccc(S(=O)(=O)O)c2cccc(S(=O)(=O)O)c12 [CBK261492N]
[out] 99.6

[in] Look up and state reported viability at 28.5 h, 10 µM for CC(Oc1ccc(F)cc1)C(=O)Nc1ccc(S(N)(=O)=O)cc1 (centres unmarked) [CBK265506]
[out] 92.3

[in] Look up and state reported viability at 28.5 h, 10 µM for NC(=O)C1CCN(CC(O)COc2ccc(-c3ccccc3)cc2)CC1 (centres unmarked) [CBK269528]
[out] 89.9
